molecular target: UniProt:Q15831; experiment: ELISA; details: compound 0.02 µM
Sequence (Q15831 whole entry, looked up): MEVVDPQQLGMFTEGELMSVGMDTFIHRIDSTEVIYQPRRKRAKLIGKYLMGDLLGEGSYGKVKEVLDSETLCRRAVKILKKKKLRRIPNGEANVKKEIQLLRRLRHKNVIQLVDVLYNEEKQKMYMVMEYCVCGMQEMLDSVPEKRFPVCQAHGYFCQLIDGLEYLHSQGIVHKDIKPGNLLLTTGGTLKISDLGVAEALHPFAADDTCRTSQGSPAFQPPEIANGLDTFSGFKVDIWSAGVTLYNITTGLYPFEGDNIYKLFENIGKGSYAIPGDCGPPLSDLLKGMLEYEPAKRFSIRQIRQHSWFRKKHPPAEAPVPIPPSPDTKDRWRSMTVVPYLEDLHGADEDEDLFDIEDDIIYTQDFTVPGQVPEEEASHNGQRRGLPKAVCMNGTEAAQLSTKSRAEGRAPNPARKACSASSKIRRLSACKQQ
PROPERTY_NAME: inhibition (%)

P. Cc1ccc(Nc2nccc(N(C)c3ccc4c(C)n(C)nc4c3)n2)cc1S(N)(=O)=O
Q. CNC(=O)c1ccccc1Sc1ccc2c(/C=C/c3ccccn3)n[nH]c2c1
Query :: Just curious, which one has the larger inhibition reading, P or Q ? Please reply using the label of the selected record.
Result :: P
(P: 0.6%, Q: 0.2%)

a. CNC(=O)c1cc(Oc2ccc(NC(=O)Nc3ccc(Cl)c(C(F)(F)F)c3)cc2)ccn1
b. COc1cc2c(Oc3ccc4[nH]c(C)cc4c3F)ncnc2cc1OCCCN1CCCC1
Query :: Which gives the smaller inhibition number: a or b ? Returns: label corresponding to the selected item.
Result :: b

----------
target: RPS6KA1 KD1 KD2 (human); test: Caliper, Mobility shift assay off-chip; settings: compound 0.2 µM
PROPERTY_NAME: inhibition (%)

Worked cases, inhibition given:
SMILES_REPR: CNC(=O)c1cc(Oc2ccc(NC(=O)Nc3ccc(Cl)c(C(F)(F)F)c3)cc2)ccn1
PROPERTY_NAME: inhibition
UNITS_TEXT: %
VALUE_MEASURED: 3.1

SMILES_REPR: COc1cc2c(Oc3ccc4[nH]c(C)cc4c3F)ncnc2cc1OCCCN1CCCC1
PROPERTY_NAME: inhibition
UNITS_TEXT: %
VALUE_MEASURED: -3.3

I. CCN(CC)CCNC(=O)c1c(C)[nH]c(/C=C2\C(=O)Nc3ccc(F)cc32)c1C
II. Cc1ccc(Nc2nccc(N(C)c3ccc4c(C)n(C)nc4c3)n2)cc1S(N)(=O)=O
Query :: Identify the entry with the larger inhibition. Options: I and II State your choice using its label.
Result :: I

----------
target: PLK4 (human) (UniProt O00444); assay: ELISA; conditions: compound 0.2 µM
Sequence (O00444 whole entry, looked up): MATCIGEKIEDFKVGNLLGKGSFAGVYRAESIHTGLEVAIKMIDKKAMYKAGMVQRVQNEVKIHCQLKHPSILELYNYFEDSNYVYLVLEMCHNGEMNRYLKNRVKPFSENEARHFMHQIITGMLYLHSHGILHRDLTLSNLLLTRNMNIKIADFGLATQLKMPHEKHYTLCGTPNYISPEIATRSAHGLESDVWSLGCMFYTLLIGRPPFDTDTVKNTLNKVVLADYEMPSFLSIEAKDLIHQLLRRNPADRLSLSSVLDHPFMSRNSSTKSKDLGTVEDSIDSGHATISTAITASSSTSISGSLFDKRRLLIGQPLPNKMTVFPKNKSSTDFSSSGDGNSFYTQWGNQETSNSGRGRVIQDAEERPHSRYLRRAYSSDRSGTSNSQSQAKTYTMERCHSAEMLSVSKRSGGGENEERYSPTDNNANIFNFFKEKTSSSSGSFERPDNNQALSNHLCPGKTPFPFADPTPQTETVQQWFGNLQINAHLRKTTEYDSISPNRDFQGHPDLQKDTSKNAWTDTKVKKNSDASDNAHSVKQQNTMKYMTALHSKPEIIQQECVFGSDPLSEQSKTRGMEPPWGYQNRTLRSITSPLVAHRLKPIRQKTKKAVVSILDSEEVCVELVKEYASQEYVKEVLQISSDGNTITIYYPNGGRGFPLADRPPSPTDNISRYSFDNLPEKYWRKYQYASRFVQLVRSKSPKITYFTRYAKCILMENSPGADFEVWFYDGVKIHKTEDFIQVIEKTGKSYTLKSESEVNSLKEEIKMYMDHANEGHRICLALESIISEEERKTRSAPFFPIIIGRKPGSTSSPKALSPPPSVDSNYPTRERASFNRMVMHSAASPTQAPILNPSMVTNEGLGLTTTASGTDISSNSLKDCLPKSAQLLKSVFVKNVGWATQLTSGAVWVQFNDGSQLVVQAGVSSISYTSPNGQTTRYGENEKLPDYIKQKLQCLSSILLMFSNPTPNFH
PROPERTY_NAME: inhibition (%)

SMILES_REPR: CCN(CC)CCNC(=O)c1c(C)[nH]c(/C=C2\C(=O)Nc3ccc(F)cc32)c1C
TARGET_OR_TEST_SYSTEM: PLK4 (human) (UniProt O00444)
inhibition / %: 30.3

P. CNC(=O)c1cc(Oc2ccc(NC(=O)Nc3ccc(Cl)c(C(F)(F)F)c3)cc2)ccn1
Q. Cc1ccc(Nc2nccc(N(C)c3ccc4c(C)n(C)nc4c3)n2)cc1S(N)(=O)=O
R. COc1cc2c(Oc3ccc4[nH]c(C)cc4c3F)ncnc2cc1OCCCN1CCCC1
Query :: Ranking field: inhibition; order: falling. The reply should contain the labels ordered as requested.
Result :: Q, P, R

----------
molecular target: PBK (human); assay: Caliper, Mobility shift assay off-chip; conditions: compound 0.2 µM
PROPERTY_NAME: inhibition (%)

Reference set (2 entries):
SMILES_REPR: COc1cc2c(Oc3ccc4[nH]c(C)cc4c3F)ncnc2cc1OCCCN1CCCC1
inhibition, %: -6.1
--
SMILES_REPR: CCN(CC)CCNC(=O)c1c(C)[nH]c(/C=C2\C(=O)Nc3ccc(F)cc32)c1C
inhibition, %: -6.1

A. CNC(=O)c1cc(Oc2ccc(NC(=O)Nc3ccc(Cl)c(C(F)(F)F)c3)cc2)ccn1
B. Cc1ccc(Nc2nccc(N(C)c3ccc4c(C)n(C)nc4c3)n2)cc1S(N)(=O)=O
Query :: Between these two entries, A and B , state which has the higher inhibition. Answer format: the label of the selected item.
Result :: A
(A: -5.2%, B: -9.3%)

The measurements presented in this section are drawn from the kinase profiling compilation of Christmann-Franck et al. (2016).
